The values you see were collected from patent US8008547B2.

assay: Standard protocol for determination of kcat and KM (continuous spectrophotometric assay, Acetyl CoA hydrolysis at 235 nm); type: biochemical; conditions: purified protein; about 23° C.; pH 6.8; 0.2 mM acetyl CoA; glyphosate 0.125 to 10 mM
For each record, write down the corresponding Km.

Given SEQ ID NO: 413: GAT polypeptide (protein, 6_9G11, GAT polypeptide) MIEVKPINAEDTYEIRHRILRPNQPLEACKYETDLLGGTLHLGGYYRGKLISIASFHQAEHSELEGQKQYQLRGMATLEGYREQKAGSTLIRHAEELLRKKGADLLWCNARTSASGYYKKLGFSEQGEVYDIPPVGPHILMYKKLT , state its recorded Km.
1300 µM

Given SEQ ID NO: 294: GAT polypeptide (protein, 12_7D6, GAT polypeptide) MIEVKPINAEDTYEIRHRILRPNQPLEACKYETDLLGGTFHLGGYYRGKLISIASFHQAEHPELEGQKQYQLRGMATLEGYREQKAGSTLIRHAEELLRKKGADLLWCNARTSASGYYKKLGFSEQGGVYDIPPTGPHILMYKKLT , state its recorded Km.
1400 µM

Given SEQ ID NO: 337: GAT polypeptide (protein, 15_6D3, GAT polypeptide) MIEVKPINAEDTYEIRHRILRPNQPLEACKYETDLLGGTFHLGGYYRGKLISIASFHQAEHPELEGQKQYQLRGMATLEEYREQKAGSTLIRHAEELLRKKGADLLWCNARTSASGYYKKLGFSEQGEVYDIPPTGPHILMYKKLT , state its recorded Km.
1400 µM
